# measured_target: Yer184c (UniProt P39961)
# Sequence: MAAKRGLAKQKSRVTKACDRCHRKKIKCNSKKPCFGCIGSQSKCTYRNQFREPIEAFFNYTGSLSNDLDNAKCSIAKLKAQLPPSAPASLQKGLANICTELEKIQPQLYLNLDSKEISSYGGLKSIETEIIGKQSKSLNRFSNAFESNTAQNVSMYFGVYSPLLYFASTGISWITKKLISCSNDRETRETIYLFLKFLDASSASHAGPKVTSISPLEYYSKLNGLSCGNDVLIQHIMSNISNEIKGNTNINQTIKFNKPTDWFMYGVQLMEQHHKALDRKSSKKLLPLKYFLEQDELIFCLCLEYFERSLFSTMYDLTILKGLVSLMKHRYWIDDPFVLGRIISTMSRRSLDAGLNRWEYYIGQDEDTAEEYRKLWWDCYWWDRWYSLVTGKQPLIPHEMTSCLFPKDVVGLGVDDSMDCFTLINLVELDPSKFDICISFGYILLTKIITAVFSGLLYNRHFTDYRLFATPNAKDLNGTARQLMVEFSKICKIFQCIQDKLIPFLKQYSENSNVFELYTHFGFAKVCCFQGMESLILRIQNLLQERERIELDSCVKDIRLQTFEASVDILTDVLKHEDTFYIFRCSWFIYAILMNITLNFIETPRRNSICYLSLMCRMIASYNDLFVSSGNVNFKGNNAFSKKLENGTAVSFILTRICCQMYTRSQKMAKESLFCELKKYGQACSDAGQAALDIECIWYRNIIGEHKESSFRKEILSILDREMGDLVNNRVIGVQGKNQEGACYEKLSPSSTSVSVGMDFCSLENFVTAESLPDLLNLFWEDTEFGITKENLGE
# method_notes: PBM E-score (8-mer binding enrichment) (E-score (-0.5 to 0.5)); higher = stronger / more preferred TF binding
# reported_conditions: protein concentration: 100 nM; construct: GST-full length
Over roughly 33,000 sequences, “E-score (-0.5 to 0.5)” has its median near -0.016; the highest 2% begin near 0.3. Shown is part of a subset that was picked to be rich in the highest values.
// map PBM E-score onto a label; ranges class 1: < -0.05; class 2: ≥ -0.05 and < 0.2; class 3: ≥ 0.2

INSERT INTO measurements (sequence_text, label_value) VALUES
  ('CCAGCCCA', 'class 1'),
  ('ATCCGCAT', 'class 2'),
  ('CGCGGCCG', 'class 3'),
  ('ATCTCTAG', 'class 1'),
  ('ACATACTC', 'class 2'),
  ('ATCCGGAA', 'class 3'),
  ('AAAATCCA', 'class 2'),
  ('GCATTCCC', 'class 1'),
  ('CGGTGGTC', 'class 2'),
  ('ATCCGGGA', 'class 3'),
  ('AGTATCCC', 'class 1'),
  ('ATCCGTAA', 'class 2'),
  ('AAACCCAC', 'class 2'),
  ('CGGTTGAA', 'class 3'),
  ('TGGTTGAA', 'class 1'),
  ('CCGAACAG', 'class 3'),
  ('ATCAGGAT', 'class 2'),
  ('ATCGGCCG', 'class 3'),
  ('AGGGATAG', 'class 1'),
  ('GATCAATA', 'class 2');

Hello, the source for this data is the supplement of paper PMC3334620, in case you need it.
